molecular target: Estrogen receptor (Homo sapiens); experiment: qHTS assay for small molecule agonists of estrogen receptor alpha signaling (AID 588514); conditions: ER-alpha-UAS-bla HEK293, beta-lactamase ratio, 18 h; series mostly up to 76.8 µM; further: nearly all actives have a fitted effect of over 70% in size
Inconclusive results are not listed. Calls of active or inactive are those of the source. The call rests on the fitted dose curve.
Labels: active, inactive

compound	experimentalTarget	className
O=[N+]([O-])CCO	Estrogen receptor (Homo sapiens)	inactive
c1ccc(N=NNc2ccccc2)cc1	Estrogen receptor (Homo sapiens)	inactive
Nc1ccc(-c2ccc(N)cc2)cc1	Estrogen receptor (Homo sapiens)	inactive
C=CCCC#N	Estrogen receptor (Homo sapiens)	inactive
ClC(Br)Br	Estrogen receptor (Homo sapiens)	inactive
CCCCCCCCCCCCCl	Estrogen receptor (Homo sapiens)	inactive
Nc1cccc2ccccc12	Estrogen receptor (Homo sapiens)	inactive
Cc1cc(-c2cc(C)c(N)c(C)c2)cc(C)c1N	Estrogen receptor (Homo sapiens)	inactive
ClC(Cl)Br	Estrogen receptor (Homo sapiens)	inactive
C=C(C)CCl	Estrogen receptor (Homo sapiens)	inactive
CN(C)c1ccc(N(C)C)cc1	Estrogen receptor (Homo sapiens)	inactive
Cc1ccc(N)cc1Cl	Estrogen receptor (Homo sapiens)	inactive
ClP(Cl)(Cl)(Cl)Cl	Estrogen receptor (Homo sapiens)	inactive
N#CCc1ccccc1	Estrogen receptor (Homo sapiens)	inactive
N#CCCC#N	Estrogen receptor (Homo sapiens)	inactive
O=C(O)C(Br)CBr (stereo unspecified)	Estrogen receptor (Homo sapiens)	inactive
Nc1ccc(Cc2ccc(N)c(Cl)c2)cc1Cl	Estrogen receptor (Homo sapiens)	inactive
C1CC2OC2CC1C1CO1 (stereo unspecified)	Estrogen receptor (Homo sapiens)	inactive
O=[N+]([O-])c1c(Cl)c(Cl)c(Cl)c(Cl)c1Cl	Estrogen receptor (Homo sapiens)	inactive
O=[N+]([O-])c1ccc(Cl)c(Cl)c1Cl	Estrogen receptor (Homo sapiens)	inactive
Nc1ccc(-c2ccccc2)cc1	Estrogen receptor (Homo sapiens)	inactive
C(CCOCC1CO1)COCC1CO1 (stereo unspecified)	Estrogen receptor (Homo sapiens)	inactive
Nn1cnnc1	Estrogen receptor (Homo sapiens)	inactive
Oc1c(Cl)cccc1Cl	Estrogen receptor (Homo sapiens)	inactive
OCC(Cl)CCl (stereo unspecified)	Estrogen receptor (Homo sapiens)	inactive
Cc1cc(-c2ccc(N)c(C)c2)ccc1N	Estrogen receptor (Homo sapiens)	active
CCOP(=S)(OCC)Oc1nc(Cl)c(Cl)cc1Cl	Estrogen receptor (Homo sapiens)	inactive
CC(Cl)CCl (stereo unspecified)	Estrogen receptor (Homo sapiens)	inactive
N#C/C(N)=C(/N)C#N	Estrogen receptor (Homo sapiens)	inactive
OC[P+](CO)(CO)CO	Estrogen receptor (Homo sapiens)	inactive
Clc1ccc(C(Cl)(Cl)Cl)cc1Cl	Estrogen receptor (Homo sapiens)	inactive
CCCN(CCC)c1c([N+](=O)[O-])cc(C(F)(F)F)cc1[N+](=O)[O-]	Estrogen receptor (Homo sapiens)	inactive
CN(C)C(=O)Cl	Estrogen receptor (Homo sapiens)	inactive
O=C(Cc1ccccc1)OCc1ccccc1	Estrogen receptor (Homo sapiens)	inactive
C=CCCl	Estrogen receptor (Homo sapiens)	inactive
Nc1ncc([N+](=O)[O-])s1	Estrogen receptor (Homo sapiens)	inactive
ClC(Cl)(Cl)C(Cl)(Cl)Cl	Estrogen receptor (Homo sapiens)	inactive
CN(C)c1ccc(N)cc1	Estrogen receptor (Homo sapiens)	inactive
c1ccc(P(c2ccccc2)c2ccccc2)cc1	Estrogen receptor (Homo sapiens)	inactive
CCCCOC(C)=O	Estrogen receptor (Homo sapiens)	inactive
ClCc1ccccn1	Estrogen receptor (Homo sapiens)	inactive
ClC(Cl)C(Cl)Cl	Estrogen receptor (Homo sapiens)	inactive
c1ccoc1	Estrogen receptor (Homo sapiens)	inactive
Oc1cccc(Cl)c1Cl	Estrogen receptor (Homo sapiens)	inactive
CN1CSC(=S)N(C)C1	Estrogen receptor (Homo sapiens)	inactive
Nc1cccc(Cl)c1	Estrogen receptor (Homo sapiens)	inactive
Cc1cccc(C)c1N	Estrogen receptor (Homo sapiens)	inactive
CCC/C=N/O	Estrogen receptor (Homo sapiens)	inactive
CCN(N=O)C(N)=O	Estrogen receptor (Homo sapiens)	inactive
O=[N+]([O-])c1ccc2c3c(cccc13)CC2	Estrogen receptor (Homo sapiens)	inactive
CCCBr	Estrogen receptor (Homo sapiens)	active
ClCC(Br)CBr (stereo unspecified)	Estrogen receptor (Homo sapiens)	inactive
CC(C)OS(C)(=O)=O	Estrogen receptor (Homo sapiens)	inactive
ClCCBr	Estrogen receptor (Homo sapiens)	inactive
C/C=C/CC#N	Estrogen receptor (Homo sapiens)	inactive
Cc1ccc2c(C)cccc2c1	Estrogen receptor (Homo sapiens)	inactive
N#CCBr	Estrogen receptor (Homo sapiens)	inactive
[O-][Cl+]O	Estrogen receptor (Homo sapiens)	inactive
Brc1ccc(Oc2ccc(Br)cc2Br)c(Br)c1	Estrogen receptor (Homo sapiens)	inactive
ClC=CCl	Estrogen receptor (Homo sapiens)	inactive
CCCCC#N	Estrogen receptor (Homo sapiens)	inactive

---

experiment: Cell Viability - LYMP1-003 - Assay at 24 hr (AID 963); details: LYMP1-003 lymphoblastoid cell viability; series mostly up to 92.2 µM;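 further: plate controls were DMSO only for no effect and tetraoctylammonium bromide positive control for full effect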
Activity calls are given as the source filed them. Calls follow the shape of the dose curve; as a rule, active = well fitted cell-killing curve with a large enough effect; inconclusive = small, poorly fitted or top-dose-only effect; inactive = flat fitted curve, though single readings scatter.

molecule	outcome
NNC(N)=S	inactive
CC(C)(C)OOC(=O)c1ccccc1	inactive
Cl/C=C/CCl	inactive
CCBr	inactive
Oc1cc(Cl)cc(Cl)c1	inactive
BrC(Br)Br	inactive

---

target: Cytochrome P450 2D6 (Homo sapiens) (UniProt P10635); test: qHTS Assay for Inhibitors and Substrates of Cytochrome P450 2D6 (AID 891); conditions: recombinant CYP2D6, luciferin-ME EGE luminescence; series mostly up to 11.4 µM; further: nearly all actives have a fitted effect of over 60% in size
Sequence (P10635 whole entry, looked up): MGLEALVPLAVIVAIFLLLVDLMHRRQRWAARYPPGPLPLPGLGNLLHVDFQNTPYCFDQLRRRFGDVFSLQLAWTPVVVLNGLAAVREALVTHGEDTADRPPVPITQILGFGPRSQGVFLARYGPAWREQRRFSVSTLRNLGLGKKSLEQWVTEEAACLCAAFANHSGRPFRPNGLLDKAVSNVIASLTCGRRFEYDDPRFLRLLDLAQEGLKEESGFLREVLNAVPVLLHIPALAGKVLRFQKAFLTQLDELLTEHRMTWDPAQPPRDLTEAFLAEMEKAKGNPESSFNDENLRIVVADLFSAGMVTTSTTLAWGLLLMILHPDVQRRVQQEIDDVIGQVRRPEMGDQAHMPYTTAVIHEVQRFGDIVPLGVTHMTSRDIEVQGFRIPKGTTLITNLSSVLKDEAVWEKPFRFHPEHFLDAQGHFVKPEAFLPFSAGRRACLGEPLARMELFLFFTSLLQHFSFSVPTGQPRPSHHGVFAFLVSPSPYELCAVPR
Results filed as inconclusive are left out. Calls of active or inactive are those of the source. Calls follow the shape of the dose curve; as a rule, active = well fitted inhibition curve with a large enough effect; inconclusive = small, poorly fitted or top-dose-only effect; inactive = no such curve, though single readings can be large or run the other way.
Possible outcomes: active, inactive

compound	className
C[C@H](Br)CN(C[C@H](C)Br)c1ccc2c(c1)Cc1ccccc1-2	inactive
O=C(O)CN1CCN(CC(=O)O)CC(=O)[O][Hg][O]C(=O)C1	active
C[C@H](CC(C#N)(c1ccccc1)c1ccccc1)N1CCCCC1	active
CC1=NN(c2ccccc2)C(=O)[C@@H]1N=Nc1ccc([As](=O)(O)O)c(O)c1	inactive
N=C(N)SCc1ccc(Cl)c2ccccc12 (tested in a mixture with another compound)	active

---

target: Nuclear receptor subfamily 1 group I member 2 (Rattus norvegicus) (UniProt Q9R1A7); assay: qHTS assay for small molecule activators of the rat pregnane X receptor (rPXR) signaling pathway (AID 651751); settings: rPXR reporter cells, luciferase (One-Glo), 24 h; further: 0% is about no effect
Sequence (Q9R1A7 whole entry, looked up): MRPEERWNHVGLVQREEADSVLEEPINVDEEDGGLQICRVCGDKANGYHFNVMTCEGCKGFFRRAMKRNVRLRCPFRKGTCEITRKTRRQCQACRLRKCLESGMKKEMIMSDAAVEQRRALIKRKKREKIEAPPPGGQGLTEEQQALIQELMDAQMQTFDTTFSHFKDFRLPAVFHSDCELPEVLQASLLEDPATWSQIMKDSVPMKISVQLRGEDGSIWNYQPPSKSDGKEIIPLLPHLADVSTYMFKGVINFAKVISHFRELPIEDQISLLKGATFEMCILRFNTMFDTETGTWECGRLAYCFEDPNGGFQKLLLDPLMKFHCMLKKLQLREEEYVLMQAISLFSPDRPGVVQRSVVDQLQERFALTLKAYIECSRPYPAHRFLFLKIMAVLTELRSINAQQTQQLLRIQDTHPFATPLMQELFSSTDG
Active and inactive are the calls of the source. How the calls were made is not given here.
measuredParameter: max response

compound	experimentalTarget	reportedMeasurement
C=CC(=O)OCC(C)C	Nuclear receptor subfamily 1 group I member 2 (Rattus norvegicus) (UniProt Q9R1A7)	-2.18% (inactive)
OCCOCCO	Nuclear receptor subfamily 1 group I member 2 (Rattus norvegicus) (UniProt Q9R1A7)	3.46% (inactive)
BrCC(Br)C1CCC(Br)C(Br)C1 (stereo unspecified)	Nuclear receptor subfamily 1 group I member 2 (Rattus norvegicus) (UniProt Q9R1A7)	-6.51% (inactive)
Oc1cccc(Cl)c1Cl	Nuclear receptor subfamily 1 group I member 2 (Rattus norvegicus) (UniProt Q9R1A7)	-2.09% (inactive)
N#CCc1ccccc1	Nuclear receptor subfamily 1 group I member 2 (Rattus norvegicus) (UniProt Q9R1A7)	1.21% (inactive)
C=CCOCC1CO1 (stereo unspecified)	Nuclear receptor subfamily 1 group I member 2 (Rattus norvegicus) (UniProt Q9R1A7)	-1.61% (inactive)
ClCC(Cl)Cl	Nuclear receptor subfamily 1 group I member 2 (Rattus norvegicus) (UniProt Q9R1A7)	-0.324% (inactive)
Brc1cccc(-c2ccccc2)c1	Nuclear receptor subfamily 1 group I member 2 (Rattus norvegicus) (UniProt Q9R1A7)	2.39% (inactive)
CCC/C=N/O	Nuclear receptor subfamily 1 group I member 2 (Rattus norvegicus) (UniProt Q9R1A7)	-0.891% (inactive)
COC(C)(C)C	Nuclear receptor subfamily 1 group I member 2 (Rattus norvegicus) (UniProt Q9R1A7)	3.77% (inactive)
Cc1ccc([N+](=O)[O-])cc1	Nuclear receptor subfamily 1 group I member 2 (Rattus norvegicus) (UniProt Q9R1A7)	3.32% (inactive)

---

Below, each entry is listed with its recorded max response.
test: qHTS assay for small molecule antagonists of retinoid X receptor alpha signaling (AID 588546); conditions: HEK293T RXRa-UAS-bla, beta-lactamase ratio, antagonist mode; measured here: W530 green channel, cytotoxicity proxy;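 further: cells stimulated with 9-cis-retinoic acid as agonist; on the % scale 0 is the no-effect control and ±100 the full control effect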
Inconclusive results are not listed.

compound	max response / %
C=CC(=O)OCCN(C)C	-6.38
BrC(Br)Br	-5.42
O=C(O)C(Cl)Br (stereo unspecified)	-6.53
C=CCOCC1CO1 (stereo unspecified)	2.33
O=Cc1ccc2c(c1)OCO2	-8.14
CC(C)OS(C)(=O)=O	5.36
CN=C=O	-1.71
CCCCCC[N+](=O)[O-]	-11.1
Cc1cnc[nH]1	-10.6
BrCC(Br)(Br)Br	2.45
Nc1cc(Cl)ccc1Cl	1.78
Oc1cc(Cl)cc(Cl)c1	-2.61
COc1ccc(C=O)cc1	3.67
c1ccc(P(c2ccccc2)c2ccccc2)cc1	-7.38
O=Cc1ccc(Cl)cc1Cl	-13.3
ClC(Cl)C(Cl)Cl	-2.39
c1ccc(N=NNc2ccccc2)cc1	-2.24
Clc1cccc(Cl)c1	-14.2
ClCC(Br)CBr (stereo unspecified)	-1.84
S=c1[nH]c2ccccc2[nH]1	-17.8
C=CCCC#N	-6.48
Nc1cccc(Cl)c1	0.683
c1ccc(C2CO2)cc1 (stereo unspecified)	-9.84
ClCCCCl	-7.74
Cc1cc(-c2cc(C)c(N)c(C)c2)cc(C)c1N	-0.244
O=NN1CCCCC1	-1.5
CCCCOC(C)=O	-8.9
Cc1cccc(N)c1C	-9
O=[N+]([O-])c1c(Cl)c(Cl)c(Cl)c(Cl)c1Cl	-1.28
CCCCCOC(=O)c1ccccc1C(=O)OCCCCC	-5.52
CC(C)C#N	-7.48
Cl/C=C\Cl	-4.97
Nc1cc(Cl)ccc1O	-1.3
COc1c(C(C)(C)C)cc([N+](=O)[O-])c(C)c1[N+](=O)[O-]	-1.47
Oc1cccc(Cl)c1Cl	-4.72
C=CCBr	-4.43
O=[N+]([O-])c1cccc(CCl)c1	8.94
CC(C)OC(=O)Cc1ccccc1	-2.88
OCCCCO	-5.28
C=CCc1cc(OC)c2c(c1)OCO2	-4.92
N#CCCCCC#N	-2.9
Clc1ccc(C(Cl)(Cl)Cl)c(Cl)c1	-9.41
c1ccoc1	1
Oc1c(Cl)c(Cl)cc(Cl)c1Cl	-8.85
FC(Cl)(Cl)Cl	-8.6
CCCBr	-1.75
CN(C)N=O	1.95
ClCCOCOCCCl	-0.61
Cc1ccc([N+](=O)[O-])cc1	1.21
Cc1coc2c1CCC(C)C2 (stereo unspecified)	-8.18
BrCCc1ccccc1	2.46
CN(C)C(=O)Cl	3.53
Nc1ccccc1-c1ccccc1	-0.398
OCCOCCO	2.28
Cc1ccc(N)cc1C	-3.11
Cc1cc(C)cc(OP(=O)(Oc2cc(C)cc(C)c2)Oc2cc(C)cc(C)c2)c1	17.8
